tested on: TO-N3 (biotin conjugate); test: pull-down binding Z-score (relative to library population); higher = stronger binding; settings: RNA library: Library-2
Record Yes whenever pull-down binding Z-score is at 0.5 or higher; record No when lower.

residues=CUGACAAAGUUUUCAG class=No
residues="CUUGCUGUGACAUGACAAAAAUAAG [hsa-mir-302d]" class=No
residues=GCGCUACUGCAACGAUACCGAUACAAGCCUCACUCCCUUUCGGAUGGCUUAUUGUUGGCGUUGCACUUCUUGCUGUUUUUCAGAGCGC class=No
residues="CCUGUCCUAUGACAAACAUGGCAGG [hsa-mir-3927]" class=No
residues="UGAAGGUCACCAUGUUCUCCUUG [hsa-mir-3187]" class=No
residues=UGACAUUACACCAUGUUCUUUUGGUGGUGUCA class=No
residues="CAAGUCCGUCUUCCUGAGAGGUUUG [hsa-mir-133b]" class=No
residues="GACAUCACUUUCUUAAAGAAAGAUGCUCCAUAUAUAGUGGGUGAUGUU [DMSMaPseq_invitro_SARS-CoV-2_Multi_15_ComplexLevel_1]" class=No
residues="GGAGGCCCCGCCCUGCUGCCGACCCUGUGGAGCGGAGGGUGAAGCCUCC [hsa-mir-3180-5]" class=Yes
residues="AGGCCGUUGCCAAUCAGAGAACGGCUA [hsa-mir-138-1]" class=Yes
residues="CAAAUCGACUGUCCAAUGGAUUUG [hsa-mir-133a-2]" class=No
residues="GAAGCACUGGUUAUGAUUUGCAUC [hsa-mir-3126]" class=No
residues="GGGCCAGUCUGACCGUUUCUAGGCG [hsa-mir-551a]" class=Yes
residues="GGGUCAGGUCUGCAGCCUUGUAUCUGCUGAUCC [hsa-mir-6881]" class=No
residues="CCCAGAGAAAGCCUGAACGUUGGG [hsa-mir-585]" class=No
residues="CCGACUCUGAGUAUGAUAGAAGUC [hsa-mir-148a]" class=Yes
residues="CAGGCAGUGGAGUUACUU [hsa-mir-600]" class=Yes
residues="AUGAGAAAUUGGUUUCAA [hsa-mir-8063]" class=No
residues="CCCAAUCGUGGCGUGUCGGCCUGCUUCGGCAGGCACUGGCGCCG [Pepper530]" class=Yes
residues="UGGAUCACGCCGACAACACUGGUCU [hsa-mir-4635]" class=Yes
residues="UAGGAGCUGUGCCUCCUGGCCUAUUCCUGUUCGUG [hsa-mir-8056]" class=No
residues=UAUGUCUGAAGCAAAAUGUUGGACUGAGACUGACCUUACUAAAGGACCUCAUGAAUUUUGCUCUCAACAUA class=No
residues="GGAAUCCUACGUGAGGGACAAUCAUUCAGACCCACGUAGCAGUGUUCU [hsa-mir-1299]" class=Yes
residues="UCAUAACAGAUGCGCAAACAGGUUCAUCUAAGUGUGUGUGUUCUGUUAUUGA [SHAPE_invivo_SARS-CoV-2_Motif_383]" class=No
residues="UGGUCAGAUAUCCCAU [hsa-mir-8060]" class=No
residues=GAUUUUGGGACUACCAACUC class=No
residues="CCUCAAUCACUUGCCAGAGAGAUUGG [hsa-mir-1200]" class=No
residues="UGCAGUUCUGUUGGGUGACAGCA [hsa-mir-6499]" class=No
residues=GGUUCGUGUCUUUAGCUAUAGAUGCUUACC class=Yes
residues="UUGUGUCCAUCAUGCAACAA [hsa-mir-802]" class=No
residues=ACAAGAUGAUAAGAAAAUCAAAGCUUGU class=No
residues="UGUUGGCAGCCCAAGAUGACA [hsa-mir-4686]" class=Yes
residues="GAAGUUACAACAACUCUGGAAGAAACUAAGUUCCUCACAGAAAACUUGUUACUUU [DMSMaPseq_invitro_SARS-CoV-2_Motif_72]" class=No
residues="AGAAGACCU [hsa-mir-378g]" class=No
residues="GGUCUAUAUGCC [SHAPE_invivo_SARS-CoV-2_Motif_218]" class=No
residues="CUGUCAUGGAAGCAAGUACUGGCAG [IAV_invivo_PA_3_Motif_16+IAV_invivo_PA_3_Motif_16]" class=Yes
residues=GAAUGGAGAACGCAGUGGGGCGCGAUCAAAACAACGUCGGCCCCAAGGUUUACCCAAUAAUACUGCGUCUUGGUUC class=No
residues="CGUGCACGUACCUGUCACAUGUGUACG [hsa-mir-3939]" class=No
residues="GUGUCCUGAAAUUCACAGGACUG [hsa-mir-4700]" class=Yes
residues="UAUGCCAUUAAAAGUAAUGGUAAA [hsa-mir-548aj-1]" class=No
residues="GUCAAAGUGACUAUUGAC [SHAPE_invitro_SARS-CoV-2_Motif_373]" class=No
residues=GGUGGUAUUGUAGCUAUCGUAGUAACAUGCCUUGCC class=Yes

====

// reported pull-down binding Z-score per item
system: TO-N3 (biotin conjugate); experiment: pull-down binding Z-score (relative to library population); higher = stronger binding; conditions: RNA library: Library-2
Parameter measured: pull-down binding Z-score

residues="GCAGAUUCUCUCUCUC [hsa-mir-4279]" system="TO-N3 (biotin conjugate)" result_number=0.189
residues="GUUGGCUCAAGAAAGGGAGAUAGAUGGUAGCCC [hsa-mir-6884]" system="TO-N3 (biotin conjugate)" result_number=1.94
residues=CUUCUUGAAAUACUCCAAAAAGAGAAAGUCAACAUCAAUAUUGUUGGUGACUUUAAACUUAAUGAAG system="TO-N3 (biotin conjugate)" result_number=-0.0282
residues="ACAUACUAGGACCUCUUUCUGCUCAAACUGGAAUUGCCGUUUUAGAUAUGU [DMSMaPseq_invitro_SARS-CoV-2_Motif_193]" system="TO-N3 (biotin conjugate)" result_number=-0.989
residues="GCCCGGGCACCGCCCCUU [hsa-mir-718]" system="TO-N3 (biotin conjugate)" result_number=0.203
residues="AUUUCUGUAGCUCUGAGACUAGACCU [hsa-mir-544b]" system="TO-N3 (biotin conjugate)" result_number=-0.0563
residues="UGGCUGCUUGGGUCAAGUCAGCAGCCA [hsa-mir-449b]" system="TO-N3 (biotin conjugate)" result_number=-0.272
residues="UUCUGCUGAAGACUGGUCUCUUCAUGUGUGAG [hsa-mir-6133]" system="TO-N3 (biotin conjugate)" result_number=-0.371
residues="GACCCCCAUGCACCCCUGUGGGCCCCUGGCAUC [hsa-mir-1257]" system="TO-N3 (biotin conjugate)" result_number=0.727
residues="GGUGUUGCAGGAGCCUUAAAUAAGGCUACUAACAAUGCC [SHAPE_invivo_SARS-CoV-2_Motif_68]" system="TO-N3 (biotin conjugate)" result_number=-0.882
residues="AGGUCAAAUCAAUGAUAUGAUUUUAUCU [SHAPE_invitro_SARS-CoV-2_Motif_388]" system="TO-N3 (biotin conjugate)" result_number=-1.31
residues="CUGAACUGGGCUGGGUUGAGCUGGGCUGGGCUGAGUUGAG [hsa-mir-4538]" system="TO-N3 (biotin conjugate)" result_number=3.25
residues="AACGGGGCGGGCCUCGGGCGGGGUAA [G4_2A2_VEGF-Pu22-mt3]" system="TO-N3 (biotin conjugate)" result_number=6.92
residues=ACCAUUGGUAGAUUUGCCAAUAGGU system="TO-N3 (biotin conjugate)" result_number=-0.966
residues="GAUGCUGUCUAUUCUAAAGGUAC [hsa-mir-101-1]" system="TO-N3 (biotin conjugate)" result_number=-0.577
residues="AAUUGGCUUUUACAAAAGACCAACU [hsa-mir-4798]" system="TO-N3 (biotin conjugate)" result_number=0.0359
residues="GCUGCAGGCAAAGCUGGGG [hsa-mir-711]" system="TO-N3 (biotin conjugate)" result_number=0.901
residues="GCGCCGCCAGAAACUGGCAGCGC [mismatch-CA]" system="TO-N3 (biotin conjugate)" result_number=0.225
residues="AUUGGAUGGAGUCAGGUCUCUAAU [hsa-mir-200b]" system="TO-N3 (biotin conjugate)" result_number=0.26
residues="UGGUAUCCUGACCG [hsa-mir-1973]" system="TO-N3 (biotin conjugate)" result_number=0.408
residues="GUAUACUGAGCUUAUGUAUGCAUCUGCAUAC [hsa-mir-5591]" system="TO-N3 (biotin conjugate)" result_number=0.39
residues="CUCGUCUCUACAAAAAAUUGAGACAGG [hsa-mir-4512]" system="TO-N3 (biotin conjugate)" result_number=-0.152

====

system: TO-N3 (biotin conjugate); test: pull-down binding Z-score (relative to library population); higher = stronger binding; conditions: RNA library: Library-2
Record TRUE whenever pull-down binding Z-score is at -0.2 or higher; record FALSE when lower.

residues="CUAUCCUUCCCUUGGAAAAUGAUCUGAG [hsa-mir-4770]" class=FALSE
residues="GGAAACUGAGACUUUGUAACUAUGUCUCAGUCUCA [hsa-mir-452]" class=FALSE
residues="GGAGGGUGAGCUUUCUGAAAACCCCUCC [hsa-mir-188]" class=TRUE
residues="AGUGCAGUAUGGUGAAGUCAAUCUGUAAU [hsa-mir-590]" class=TRUE
residues="GUUGCAUGUUGUCACGGCCUCAAUGCAAU [hsa-mir-32]" class=TRUE
residues="AAAUUUACAAAACACCACCAAUUAAAGAUUUUGGUGGUUUUAAUUU [DMSMaPseq_invitro_SARS-CoV-2_Motif_425]" class=TRUE
residues="ACACCUGUAAAGAAUUGGUCAGCCUGGGGACUGGUGAUCUCUGCAGCUGU [hsa-mir-4265]" class=TRUE

Where do the numbers come from? From the supplement of paper PMC11865577.
